Biological target: human caspase-3 (Homo sapiens)
Sequence (P42574 29-175 limits assumed): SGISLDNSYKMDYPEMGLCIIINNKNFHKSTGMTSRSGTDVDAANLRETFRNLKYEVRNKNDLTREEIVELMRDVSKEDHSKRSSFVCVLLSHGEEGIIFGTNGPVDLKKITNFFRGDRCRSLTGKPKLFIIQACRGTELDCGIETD
Sequence (P42574 176-277 limits assumed): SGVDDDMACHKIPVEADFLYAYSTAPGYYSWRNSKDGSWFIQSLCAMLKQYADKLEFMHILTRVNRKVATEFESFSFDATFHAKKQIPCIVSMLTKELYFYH
PROPERTY: pIC50
When answering, recall that pIC50 equals minus log10 of the concentration in mol/L, and write that number alone.

Tell me the measured pIC50 of CC(C)[C@H](NC(=O)[C@H](CCC(=O)O)NC(=O)[C@H](CC(=O)O)NC(=O)OCc1ccccc1)C(=O)NN(CC(=O)O)C(=O)C(=O)Cc1ccccc1 , please.
4.87

---

Target: I. ricinus legumain (Ixodes ricinus, UniProt Q6PRC7)
Sequence (Q6PRC7 37-328 limits assumed): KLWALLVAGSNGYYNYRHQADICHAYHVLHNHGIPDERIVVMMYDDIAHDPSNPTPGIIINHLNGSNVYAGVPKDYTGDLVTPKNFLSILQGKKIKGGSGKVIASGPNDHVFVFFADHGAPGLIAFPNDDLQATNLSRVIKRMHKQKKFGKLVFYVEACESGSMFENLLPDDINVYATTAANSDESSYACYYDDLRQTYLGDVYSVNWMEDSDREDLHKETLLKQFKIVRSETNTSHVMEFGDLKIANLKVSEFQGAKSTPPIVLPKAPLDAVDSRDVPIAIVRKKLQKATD
Assay: Legumain kinetic assay (I. ricinus)
Format: biochemical
Conditions: substrate Cbz-AAN-AMC 50 µM, pH 5.5; read-out: IC50 I. ricinus
Method: Schistosoma mansoni and Ixodes ricinus legumain zymogens were expressed in the yeast, Pichia pastoris, as described[36]^,[42]. Legumain kinetic assay details: zymogens were activated for 3 h (Ir) or overnight (Sm) at room temperature in 0.1 M Na-Ac pH 4.0; 5 mM DTT. Activities were measured in 0.1 M Na-Ac pH 5.5; 2.5 mM DTT, 0.1% PEG 6000 buffer. […] Measurements were taken with an incubation period of 10 min at room temperature, and the enzyme activity was measured in triplicate. […]
PROPERTY: IC50

Entry under review: CC(=O)C(=O)N(CC(N)=O)NC(=O)[C@H](C)NC(=O)[C@H](C)NC(=O)OCc1ccccc1 [Compound 10] . Reported IC50?
> 100 µM

---

biological target: S. mansoni legumain (Schistosoma mansoni, UniProt P09841)
Sequence (P09841 32-291): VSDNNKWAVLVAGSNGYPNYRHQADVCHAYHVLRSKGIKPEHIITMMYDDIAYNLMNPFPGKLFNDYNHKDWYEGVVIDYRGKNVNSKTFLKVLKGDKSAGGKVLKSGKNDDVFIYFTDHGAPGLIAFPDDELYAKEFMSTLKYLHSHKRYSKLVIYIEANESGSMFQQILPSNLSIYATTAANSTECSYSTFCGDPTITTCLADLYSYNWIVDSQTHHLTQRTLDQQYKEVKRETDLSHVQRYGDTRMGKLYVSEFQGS
PROPERTY: pIC50
Quick note: pIC50 means taking -log10 of the concentration in moles per liter.

Data request, read-out pIC50, for C[C@H](NC(=O)OCc1ccccc1)C(=O)N[C@@H](C)C(=O)NN(CC(N)=O)C(=O)C(=O)Cc1ccccc1
4.65

---

biological target: β5 active site of the human 20S proteasome (Homo sapiens, UniProt P28074); test: Proteasome kinetic assay (β5 chymotrypsin-like active site); conditions: substrate Suc-LLVY-AMC 100 µM
PROPERTY: pIC50
# pIC50: negative log10 of molar concentration; output just the value

Take a look at these entries with their results.
[[record]]
compound = "CC(C)C[C@H](NC(=O)OCc1ccccc1)C(=O)N[C@@H](CC(C)C)C(=O)NN(CC(C)C)C(=O)C(=O)Cc1ccccc1 [Compound 5]"
property = "pIC50"
measured_result = 5.00

[[record]]
compound = "CC(C)C[C@H](NC(=O)OCc1ccccc1)C(=O)N[C@@H](CC(C)C)C(=O)NN(CC(C)C)C(=O)C=O [Compound 3]"
property = "pIC50"
measured_result = 5.04


# evaluate next
Could you share which pIC50 value was measured for CC(=O)C(=O)N(CC(C)C)NC(=O)[C@H](CC(C)C)NC(=O)[C@H](CC(C)C)NC(=O)OCc1ccccc1 [Compound 4] ?
4.84

---

Target or system human caspase-6 (Homo sapiens): recorded IC50 listed per item.
Form entry: value (µM) — number only.

[[record]]
structure_string = "CC[C@@H](C)[C@H](NC(=O)OCc1ccccc1)C(=O)N[C@@H](CCC(=O)O)C(=O)N[C@H](C(=O)NN(CC(=O)O)C(=O)C(C)=O)[C@H](C)O"
property = "IC50"
measured_result = 9.08


Consider the compound shown here: CC(=O)C(=O)N(CC(=O)O)NC(=O)[C@@H](NC(=O)[C@H](CCC(=O)O)NC(=O)[C@H](CC(=O)O)NC(=O)OCc1ccccc1)C(C)C What is its recorded IC50?
51.9
